Where these numbers come from: ChEMBL document CHEMBL6109108

test system: Hepatitis C virus; test: Antiviral activity against Hepatitis C virus genotype 2a infected in human Huh-7 cells assessed as reduction in viral infection; type: functional, organism-based, Hepacivirus hominis
Task for the reader: assign each of the following molecules its reported pEC50.
Scale: pEC50 equals -log10([C]), with [C] in mol/L.

INPUT: Query the reported pEC50 for Hepatitis C virus; item: COc1ccc(-c2cc3c(C(F)(F)F)cc(C(F)(F)F)nc3n3c(-c4ccc(OC)cc4)cnc23)cc1
OUTPUT: 5.39

INPUT: Okay, and Cc1cccc(-c2cnc3ccc4c(C(F)(F)F)cc(C(F)(F)F)nc4n23)c1 ?
OUTPUT: 5.59

INPUT: Okay, and Cc1ccccc1-c1cnc2ccc3c(C(F)(F)F)cc(C(F)(F)F)nc3n12 ?
OUTPUT: 5.55
